# Test system: T-47D breast
# Procedure Summary: NCI tumour cell line growth inhibition, 48 h
Measurement Name: TGI

compound=COc1cc(-c2nc3ccc(N4CCN(C)CC4)cc3[nH]2)c(OC)c2[nH]c(COC(C)=O)nc12 measurement_name=TGI measurement="> 100 µM"
compound=c1cc(-c2ccc(-c3ccc(-c4ccc(-c5ccncc5)o4)cc3)o2)ccn1 measurement_name=TGI measurement="40.9 µM"
compound=COc1cc(Oc2c(C)c(Cl)c(OC)c(Cl)c2OC)c2c(c1Cl)COC2=O measurement_name=TGI measurement="> 100 µM"
compound=COc1cc2c(c(OC)c1OC)C(=O)[C@@H]1[C@H]2N1C(=O)NCCCl measurement_name=TGI measurement="> 100 µM"
compound=COCCN(CCNC(=O)c1cccc2c(N)c3cccc(C)c3nc12)CCOC measurement_name=TGI measurement="27.5 µM"
compound="COC(=O)N1CC(=O)C(C(=O)NC23CC4CC(CC(C4)C2)C3)C1 (stereo not given)" measurement_name=TGI measurement="> 100 µM"

## Input Query (compound): O=C1/C(=C/c2ccccc2)CN(C(=O)C(Cl)Cl)C/C1=C\c1ccccc1 ; field requested: TGI
## Output 4.11 µM

## Input Name the recorded TGI for O=[N+]([O-])C(/C=C(\Cl)[N+](=O)[O-])=C1Nc2ccccc2N1 .
## Output 69 µM

## Input Bench note: what TGI did CC(=O)c1[nH]c(NC(C)C)c(C(=S)Nc2ccccc2)c1N show?
## Output 82.6 µM

## Input Value lookup for TGI; key = C=C1CC2(CC(c3ccccc3Cl)OC(c3ccccc3Cl)C2)OC1=O (stereo not given)
## Output 3.22 µM

## Input Item COC(=O)C1CCC(=O)N1C(c1cc(OC)c(OC)c(OC)c1)c1cc(OC)c(OC)c(OC)c1 (stereo not given) has what recorded TGI?
## Output > 100 µM

## Input Record request: TGI value, item Oc1ccc([C@H]2c3c(O)cc(O)cc3C3c4c(cc(O)cc4[C@@H]2[C@H]2c4cc(O)cc5c4C(c4cc(O)cc(O)c4[C@@H]2c2ccc(O)cc2)[C@@H](c2ccc(O)cc2)O5)O[C@@H]3c2ccc(O)cc2)cc1 (stereo not given in full)
## Output > 100 µM

## Input What TGI value was documented for this compound, CC1(C)[C@@H]2C[C@H]1[C@@H](Cc1cccc(C[C@H]3c4cc(-c5ccccn5)ncc4[C@H]4C[C@@H]3C4(C)C)c1)c1cc(-c3ccccn3)ncc12 ?
## Output > 49.3 µM

## Input # TGI lookup, item C=C(CN1CCN(c2ccc(C(F)(F)F)cc2)CC1)c1ccc(C(=O)Nc2ccccc2N)cc1
## Output > 100 µM
